Hello, the source for this data is ChEMBL document CHEMBL1138344, in case you need it.

Parameter 'readout' = Kd; parameter 'system' = Peptidyl-prolyl cis-trans isomerase FKBP1A (Homo sapiens, UniProt P62942).
Sequence (P62942 whole entry): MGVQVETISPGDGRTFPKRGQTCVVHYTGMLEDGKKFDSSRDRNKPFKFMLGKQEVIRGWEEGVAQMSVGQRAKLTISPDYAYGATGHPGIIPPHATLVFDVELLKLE
The figure you give is taken to be in µM; do not add the unit.

**Query** # query: Kd of entry `Cc1ccc(SCC(=O)N2CCOCC2)cc1`
**Result** 15

**Query** # query: Kd of entry CC(C)c1ccc(S(=O)(=O)CC(=O)N2CCOCC2C(=O)OCCCc2ccc[n+]([O-])c2)cc1 (configuration not stated)
**Result** 1280

**Query** # query: Kd of entry `CC(C)c1ccc(SC(F)(F)C(=O)N2CCOCC2)cc1`
**Result** 2.8

**Query** # query: Kd of entry COC(=O)C1COCCN1C(=O)CS(=O)(=O)c1ccc(C(C)C)cc1 (configuration not stated)
**Result** 505

**Query** # query: Kd of entry `Cc1cc(OCC(=O)N2CCOCC2)cc(C(C)C)c1Cl`
**Result** 576

**Query** # query: Kd of entry `COC(=O)[C@@H]1CCCCN1C(=O)C(=O)c1cc(OC)c(OC)c(OC)c1`
**Result** 3

**Query** # query: Kd of entry `O=C(COc1ccc(S(=O)(=O)NC2CCCC2)cc1)N1CCOCC1`
**Result** 755

**Query** # query: Kd of entry `CCc1ccc(OCC(=O)N2CCOCC2)cc1`
**Result** 123

**Query** # query: Kd of entry c1ccc2[nH]c(-c3cscn3)nc2c1 [THIABENDAZOLE]
**Result** 60

**Query** # query: Kd of entry `Cc1cc(S(=O)(=O)Nc2cccc(C(F)(F)F)c2)ccc1OCC(=O)N1CCOCC1`
**Result** 576

**Query** # query: Kd of entry `Cc1cc(OCC(=O)N2CCOCC2)cc(C)c1Cl`
**Result** 231

**Query** # query: Kd of entry `Cc1nnc(SCC2=NOCC2)n1-c1ccccc1`
**Result** 39

**Query** # query: Kd of entry `O=[N+]([O-])c1ccc(NS(=O)(=O)N2CCCCC2)cc1`
**Result** 167

**Query** # query: Kd of entry CC(C)c1ccc(SCC(=O)N2CCOCC2C(=O)O)cc1 (configuration not stated)
**Result** 426

**Query** # query: Kd of entry `O=S(=O)(Nc1ccc(Br)cc1)N1CCCCC1`
**Result** 299

**Query** # query: Kd of entry `CC(C)c1ccc(OCC(=O)N2CCOCC2)cc1`
**Result** 100

**Query** # query: Kd of entry `CC(=O)c1cccc(NS(=O)(=O)N2CCCCC2)c1`
**Result** 552

**Query** # query: Kd of entry `Cc1cc(OCC(=O)N2CCOCC2)ccc1C(C)C`
**Result** 187

**Query** # query: Kd of entry `O=C(COc1ccc2c(c1)OCO2)N1CCOCC1`
**Result** 576

**Query** # query: Kd of entry `Cc1cc(S(=O)(=O)N2CCCC2)ccc1OCC(=O)N1CCOCC1`
**Result** 576

**Query** # query: Kd of entry CC(C)c1ccc(SCC(=O)N2CCOCC2C(=O)OCCCc2cccnc2)cc1 (configuration not stated)
**Result** 5.6

**Query** # query: Kd of entry `O=S(=O)(Nc1cc(Cl)cc(Cl)c1)N1CCCCC1`
**Result** 155

* * *

Parameter 'readout' = Kd; parameter 'system' = Peptidyl-prolyl cis-trans isomerase FKBP1A (Homo sapiens, UniProt P62942).

**Query** API: value(readout=Kd, system=Peptidyl-prolyl cis-trans isomerase FKBP1A (Homo sapiens, UniProt P62942)) for record `O=C(COc1ccccc1)N1CCOCC1`
**Result** > 1030 µM

**Query** API: value(readout=Kd, system=Peptidyl-prolyl cis-trans isomerase FKBP1A (Homo sapiens, UniProt P62942)) for record `c1ccc2c(c1)nc(-c1cscn1)n2CCCc1nnn[nH]1`
**Result** > 1500 µM

**Query** API: value(readout=Kd, system=Peptidyl-prolyl cis-trans isomerase FKBP1A (Homo sapiens, UniProt P62942)) for record Cc1ccc(OCC(=O)N2CC(C)OC(C)C2)cc1C (stereo not given)
**Result** > 5000 µM

**Query** API: value(readout=Kd, system=Peptidyl-prolyl cis-trans isomerase FKBP1A (Homo sapiens, UniProt P62942)) for record `CC(C)c1ccc(SCC(=O)O)cc1`
**Result** > 4000 µM

**Query** API: value(readout=Kd, system=Peptidyl-prolyl cis-trans isomerase FKBP1A (Homo sapiens, UniProt P62942)) for record `Cc1ccc(Cl)cc1NS(=O)(=O)N1CCCCC1`
**Result** > 3700 µM

**Query** API: value(readout=Kd, system=Peptidyl-prolyl cis-trans isomerase FKBP1A (Homo sapiens, UniProt P62942)) for record `CCOc1ccc(NS(=O)(=O)N2CCCCC2)cc1`
**Result** > 1230 µM

**Query** API: value(readout=Kd, system=Peptidyl-prolyl cis-trans isomerase FKBP1A (Homo sapiens, UniProt P62942)) for record `O=C(O)c1ccccc1SCC(=O)N1CCOCC1`
**Result** > 3700 µM

**Query** API: value(readout=Kd, system=Peptidyl-prolyl cis-trans isomerase FKBP1A (Homo sapiens, UniProt P62942)) for record `Cc1ccc(S(=O)(=O)CC(=O)N2CCOCC2)cc1`
**Result** > 5000 µM

**Query** API: value(readout=Kd, system=Peptidyl-prolyl cis-trans isomerase FKBP1A (Homo sapiens, UniProt P62942)) for record `Cc1cc(N)cc(C)c1OCC(=O)N1CCOCC1`
**Result** > 2400 µM

**Query** API: value(readout=Kd, system=Peptidyl-prolyl cis-trans isomerase FKBP1A (Homo sapiens, UniProt P62942)) for record `O=C(CSc1ccc2ccccc2c1)N1CCOCC1`
**Result** > 1400 µM

**Query** API: value(readout=Kd, system=Peptidyl-prolyl cis-trans isomerase FKBP1A (Homo sapiens, UniProt P62942)) for record `Cc1cc(Cl)ccc1OCC(=O)N1CCOCC1`
**Result** > 1000 µM

**Query** API: value(readout=Kd, system=Peptidyl-prolyl cis-trans isomerase FKBP1A (Homo sapiens, UniProt P62942)) for record Cc1cc(OCC(=O)N2CC(C)OC(C)C2)cc(C)c1Cl (stereo not given)
**Result** > 5000 µM

**Query** API: value(readout=Kd, system=Peptidyl-prolyl cis-trans isomerase FKBP1A (Homo sapiens, UniProt P62942)) for record `CC(C)NS(=O)(=O)c1ccc(OCC(=O)N2CCOCC2)cc1`
**Result** > 1000 µM

**Query** API: value(readout=Kd, system=Peptidyl-prolyl cis-trans isomerase FKBP1A (Homo sapiens, UniProt P62942)) for record `Cc1cc(C)c(OCC(=O)N2CCOCC2)c(C)c1`
**Result** > 1500 µM

**Query** API: value(readout=Kd, system=Peptidyl-prolyl cis-trans isomerase FKBP1A (Homo sapiens, UniProt P62942)) for record `COc1cc(CNCc2cccs2)ccc1OCC(=O)N1CCOCC1`
**Result** > 5000 µM

**Query** API: value(readout=Kd, system=Peptidyl-prolyl cis-trans isomerase FKBP1A (Homo sapiens, UniProt P62942)) for record `COc1cc2c(cc1NS(=O)(=O)N1CCCCC1)oc1ccccc12`
**Result** > 3700 µM

**Query** API: value(readout=Kd, system=Peptidyl-prolyl cis-trans isomerase FKBP1A (Homo sapiens, UniProt P62942)) for record `Clc1cccc(Cl)c1Cn1c(-c2cscn2)nc2ccccc21`
**Result** > 4000 µM

**Query** API: value(readout=Kd, system=Peptidyl-prolyl cis-trans isomerase FKBP1A (Homo sapiens, UniProt P62942)) for record `O=C(Nc1ccc(OCC(=O)N2CCOCC2)cc1)c1ccccc1Cl`
**Result** > 2500 µM

**Query** API: value(readout=Kd, system=Peptidyl-prolyl cis-trans isomerase FKBP1A (Homo sapiens, UniProt P62942)) for record `Cc1ccc(C(C)C)c(OCCNC(=O)c2ccccc2OCC(=O)N2CCOCC2)c1`
**Result** > 2500 µM

**Query** API: value(readout=Kd, system=Peptidyl-prolyl cis-trans isomerase FKBP1A (Homo sapiens, UniProt P62942)) for record `Brc1ccccc1Cn1c(-c2cscn2)nc2ccccc21`
**Result** > 3000 µM
